System: PPARg:RXRa (NR concentration 180 nM, RXRa partner concentration 90 nM)
Test: PBM binding z-score (relative to random genomic background probes); higher = stronger binding; sequences stand for … in GC…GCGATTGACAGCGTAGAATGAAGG
REPORTED_ENDPOINT: PBM binding z-score

TCTGCTAGGTCAACGAGGGTCAGCTAATCTGCTA	3.36
GCCAGTTGGTCAGTAAAAGGTCACACACCGGTCG	2.75
AGTACAGGGTCATCGTAGGCCAGAGTACGCACAG	6.41
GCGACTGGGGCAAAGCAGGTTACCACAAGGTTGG	1.35
TCGAGTAGGTTTGTCGGGGCATTCAGCCAACATA	-0.493
CAAACTAGGTCAAGATGTCAAAGTCCGCTTCCCG	8.33
AGAATGAGGTTATAAAGATCAGGGAATTGCGGTC	1.58
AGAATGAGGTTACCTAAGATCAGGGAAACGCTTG	2.39
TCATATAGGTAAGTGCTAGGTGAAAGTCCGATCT	0.556
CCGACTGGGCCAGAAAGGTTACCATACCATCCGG	0.92
GCGACTGGAGCAAAGCAGGTTACCATAAGGTTGG	0.477
CCTAGTTGGTCAGGAGGTCACACGCCGGATATGA	3.59

###

Tested on: RXRa homodimer (NR concentration 180 nM)
Experiment: PBM binding z-score (relative to random genomic background probes); higher = stronger binding; sequences stand for … in GC…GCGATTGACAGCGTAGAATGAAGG
Parameter threshold = 3. Response is rule met when PBM binding z-score meets or exceeds it, else rule not met.

TCTAGTTGGTCACGGAGGTCACCCACGACGGGTA	rule met
TAGCCTAGGTCAGATCGGGCAAGTATACGCTATA	rule not met
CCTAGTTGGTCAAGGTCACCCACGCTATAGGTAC	rule met
ATAGACAGGTGAGTGAAGGTAACTCAGCTGGACG	rule not met
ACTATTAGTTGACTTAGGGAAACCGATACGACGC	rule not met
TATACAGGGTCAAAGTCCAGAGTACGAATGTCGA	rule met
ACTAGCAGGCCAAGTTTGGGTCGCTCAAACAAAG	rule not met
TAGCTTAGGTCATTGGGCCAGTATAGTACGCATC	rule met
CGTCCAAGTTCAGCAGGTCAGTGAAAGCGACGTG	rule not met
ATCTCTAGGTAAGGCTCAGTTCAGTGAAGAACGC	rule not met
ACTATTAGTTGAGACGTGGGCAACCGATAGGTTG	rule not met
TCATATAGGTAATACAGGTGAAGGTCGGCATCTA	rule not met

###

Test system: PPARg homodimer (NR concentration 180 nM)
Assay: PBM binding z-score (relative to random genomic background probes); higher = stronger binding; sequences stand for … in GC…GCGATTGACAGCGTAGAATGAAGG
REPORTED_ENDPOINT: PBM binding z-score

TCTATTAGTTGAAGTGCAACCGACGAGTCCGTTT	0.829
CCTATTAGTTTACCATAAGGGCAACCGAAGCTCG	1.47
CGAACTAGGTCAAGGACAGGGAATCTCCGCACGC	3.11

###

PBM binding z-score values by entry
Test system: PPARg homodimer (NR concentration 180 nM)
Test: PBM binding z-score (relative to random genomic background probes); higher = stronger binding; sequences stand for … in GC…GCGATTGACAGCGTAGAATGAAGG
REPORTED_ENDPOINT: PBM binding z-score

CCTACTGGGCCATCAGATCATTGATATCAACGTT	-0.139
CGTCCAGGGTCAGAGAGGTCAGTGAATGCCGAGT	3.95
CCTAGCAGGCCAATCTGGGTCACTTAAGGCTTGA	1.03
ACTAGCAGGCCAAGTTTGGGTCACTTAAACAAAG	0.336
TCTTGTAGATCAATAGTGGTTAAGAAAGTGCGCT	0.545
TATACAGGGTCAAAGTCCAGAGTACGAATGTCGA	3.98
CCTAGCAGGCCAGGGTCACTGAAGCATTTCGCTT	1.08
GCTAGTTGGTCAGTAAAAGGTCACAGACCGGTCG	3.83
GCGACTGGGGCATCAGCAGGTTACCAAAACTTAA	0.651
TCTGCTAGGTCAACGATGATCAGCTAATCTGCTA	0.451
ATCTCTAGGTCAAGATAGTTCAGTGAATGCAAAT	2.05
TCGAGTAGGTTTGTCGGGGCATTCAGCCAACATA	0.186

###

System: VDR homodimer (NR concentration 270 nM)
Assay: PBM binding z-score (relative to random genomic background probes); higher = stronger binding; sequences stand for … in GC…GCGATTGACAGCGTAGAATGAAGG
Entry flag: class 1 if PBM binding z-score reaches 0.3; class 0 if it does not.

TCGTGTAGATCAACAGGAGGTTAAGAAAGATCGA	class 0
CGAACTACGTCAGAACAGGACAGTGAAGGATGAT	class 0
GGAACGATGGCATTCGAGTTGATAGCATGGCGAT	class 0
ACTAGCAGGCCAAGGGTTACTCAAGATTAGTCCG	class 0
CGAACTAGGTCATCTAGGACAGTGAATACATTGA	class 1
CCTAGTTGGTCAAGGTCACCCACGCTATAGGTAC	class 1
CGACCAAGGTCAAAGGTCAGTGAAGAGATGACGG	class 1
TCATATAGGGAATACAGGTGAAAGTCGGCATCTA	class 1
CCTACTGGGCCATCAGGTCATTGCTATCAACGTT	class 1
ATTGAAAGGTCGACGAGGTGAGTATACACCGTTT	class 1
TGAATGAGGTTAAAAATCAGGGAACGTGGCGTCG	class 1

###

System: VDR:RXRa (NR concentration 270 nM, RXRa partner concentration 90 nM)
Experiment: PBM binding z-score (relative to random genomic background probes); higher = stronger binding; sequences stand for … in GC…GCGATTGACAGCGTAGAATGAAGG
Assign class by PBM binding z-score: not lower than 0.07 means 1; lower than 0.07 means 0.

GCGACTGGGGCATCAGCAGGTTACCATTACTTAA	0
CCTAGCAGGCCAATCTGGGTCATTCAAGGCTTGA	1
TCTGCTAGGTCAACGATTGTCAGCTAATCTGCTA	1
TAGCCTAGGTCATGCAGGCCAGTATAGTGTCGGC	1
TTACCAAGGTGAAAGGACGTTGATGCACGCCTTG	0
TCAAATAGGTAAAGGTGAAAGTCGAACGATATGA	1
ATCTCTAGGTAAAAGTTCAGTGAGTCCCGAGGAT	1
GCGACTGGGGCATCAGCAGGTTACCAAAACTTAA	0
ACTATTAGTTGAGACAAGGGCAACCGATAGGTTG	1
TCATATAGGTAAAAGGTGAAATTCGGTGTGGTAA	1
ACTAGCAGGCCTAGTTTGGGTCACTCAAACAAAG	0

###

Listing of recorded PBM binding z-score by entry.
Tested on: RXRa homodimer (NR concentration 180 nM)
Experiment: PBM binding z-score (relative to random genomic background probes); higher = stronger binding; sequences stand for … in GC…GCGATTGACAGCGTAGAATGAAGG
REPORTED_ENDPOINT: PBM binding z-score

CTCGAAAGGTCGTGCTCAGGTGAGTATACCAAAC	4.63
TCTTGTAGATCTACAGGAGGTTAAGAAAGATCGA	0.709
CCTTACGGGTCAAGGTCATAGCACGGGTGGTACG	7.01
TCGAGTAGGTTATCAATGGGGCATTCAGCTTTCT	0.432
TCATACAGGTAAAAGGTGAAAGTCGGTGTGGTAA	3.18
TTTCCAAGGTGAGCTGAGGTCGTTGATCCAACTC	1.59
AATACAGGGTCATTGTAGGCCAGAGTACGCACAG	6.15
GTTGCTAGGTCAGGTTGGTCAGCTAACGGGTACG	1.4
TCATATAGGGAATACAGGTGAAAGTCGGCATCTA	1.24
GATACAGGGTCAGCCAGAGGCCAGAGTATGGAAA	4.6
CAAACTAGGTCACCTGAAGGTCAAAGTCCGCATG	6.63
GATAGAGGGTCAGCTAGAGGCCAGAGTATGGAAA	3.71
ATCGAAAGGTCGGCGAGGTGAGTATACACCGTTT	3.86
CCGACTGGGACATAAGGTTACCATAAGCCAGCCC	1.01
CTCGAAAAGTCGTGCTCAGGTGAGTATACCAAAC	0.0508
GCATATAGGTAATACAAGGGGAAAGTCCGATTGT	0.3
CGAACAAGGGCATGAGTTGATAGCAAATGCCGAT	0.715
CCGACTGGGGGAAAGGTTACCATACTCAGTACGA	3.06
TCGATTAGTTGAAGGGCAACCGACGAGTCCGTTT	0.397
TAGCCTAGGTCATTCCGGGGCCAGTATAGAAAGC	2.66
TCTTATAGATCAAAGGTTAAGAAAGCCGAAGCCT	3.93
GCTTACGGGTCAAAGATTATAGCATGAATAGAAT	5.43
CCTCGGAGGACTACAGGAGGTCAGAGCTGCCAGA	1.93
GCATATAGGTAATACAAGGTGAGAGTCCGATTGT	0.4
TCTCGGAGGACACGAAGGTCAGAGGTTTCCAGAG	2.29
ATCGAAAGGGCGAGGTGAGTATAGAGAAAGGGAA	0.756
